Source of measurements: ChEMBL document CHEMBL4177573

molecular target: Neuropeptide Y receptor type 2 (Homo sapiens, UniProt P49146); assay: Agonist activity at human neuropeptide Y2 receptor expressed in CHO cell membranes assessed as stimulation of [35S]GTPgammaS binding incubated for 120 mins by liquid scintillation counting method
Sequence (P49146 whole entry): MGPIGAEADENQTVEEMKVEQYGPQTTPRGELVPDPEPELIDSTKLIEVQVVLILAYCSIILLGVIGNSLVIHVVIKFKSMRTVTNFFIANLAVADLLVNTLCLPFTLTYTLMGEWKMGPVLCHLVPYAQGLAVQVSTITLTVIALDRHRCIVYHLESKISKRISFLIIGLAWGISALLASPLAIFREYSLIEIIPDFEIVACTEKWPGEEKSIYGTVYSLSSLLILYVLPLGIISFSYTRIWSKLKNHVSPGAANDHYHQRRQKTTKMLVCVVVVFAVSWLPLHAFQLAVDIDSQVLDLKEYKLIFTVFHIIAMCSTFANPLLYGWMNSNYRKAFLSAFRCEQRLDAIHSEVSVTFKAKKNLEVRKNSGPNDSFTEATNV
assayReadout: EC50 (nM)
Please respond with the number in nM and leave the unit unwritten.

EC50 lookup needed for CC(=O)N[C@@H](CO)C(=O)N1CCC[C@@H]1C(=O)NC(C)(C)C(=O)N[C@@H](Cc1ccncc1)C(=O)N[C@@H](CC1CCCCC1)C(=O)NC(C)(C)C(=O)N[C@@H](CC(N)=O)C(=O)N[C@@H](CCCCN)C(=O)NC(C)(C)C(=O)N[C@H](C(=O)N[C@@H](CCCNC(=N)N)C(=O)N[C@@H](CCC(N)=O)C(=O)N[C@@H](CCCNC(=N)N)C(=O)N[C@@H](CC1CCCCC1)C(N)=O)[C@@H](C)O , thanks.
0.21

Proceed to CC[C@](C)(NC(=O)[C@H]1C[C@H](O)CN1C(=O)[C@H](CO)NC(=O)c1c[nH]cn1)C(=O)N[C@@H](Cc1ccncc1)C(=O)N[C@@H](CC1CCCCC1)C(=O)NC(C)(C)C(=O)N[C@@H](CC(N)=O)C(=O)N[C@@H](CCCCN)C(=O)NC(C)(C)C(=O)N[C@H](C(=O)N[C@@H](CCCNC(=N)N)C(=O)N[C@@H](CCC(N)=O)C(=O)N[C@@H](CCCNC(=N)N)C(=O)N[C@@H](CC1CCCCC1)C(N)=O)[C@@H](C)O
0.17

Try the compound CC[C@](C)(NC(=O)[C@H]1CCCN1C(=O)[C@H](CO)NC(C)=O)C(=O)N[C@@H](Cc1ccncc1)C(=O)N[C@@H](CC1CCCCC1)C(=O)NC(C)(C)C(=O)N[C@@H](CC(N)=O)C(=O)N[C@@H](CCCCN)C(=O)NC(C)(C)C(=O)N[C@H](C(=O)N[C@@H](CCCNC(=N)N)C(=O)N[C@@H](CCC(N)=O)C(=O)N[C@@H](CCCNC(=N)N)C(=O)N[C@@H](CC1CCCCC1)C(N)=O)[C@@H](C)O
0.28

Input CC[C@@](C)(NC(=O)[C@H](CO)NC(C)=O)C(=O)N[C@@H](CCCNC(=N)N)C(=O)N[C@@H](Cc1ccncc1)C(=O)N[C@@H](CC1CCCCC1)C(=O)NC(C)(C)C(=O)N[C@@H](CC(N)=O)C(=O)N[C@@H](CCCCN)C(=O)NC(C)(C)C(=O)N[C@H](C(=O)N[C@@H](CCCNC(=N)N)C(=O)N[C@@H](CCC(N)=O)C(=O)N[C@@H](CCCNC(=N)N)C(=O)N[C@@H](CC1CCCCC1)C(N)=O)[C@@H](C)O
0.11

Also check CC(C)C[C@H](NC(=O)[C@H](CC(N)=O)NC(=O)[C@H](CC1CCCCC1)NC(=O)[C@H](CC1CCCCC1)NC(=O)[C@H](Cc1cnc[nH]1)NC(=O)[C@H](CCCNC(=N)N)NC(=O)[C@H]1CCCN1C(=O)[C@H](CO)NC(=O)c1c[nH]cn1)C(=O)NC(C)(C)C(=O)N[C@H](C(=O)N[C@@H](CCCNC(=N)N)C(=O)N[C@@H](CCC(N)=O)C(=O)N[C@@H](CCCNC(=N)N)C(=O)N[C@@H](CC1CCCCC1)C(N)=O)[C@@H](C)O
0.18
